Each item that follows carries a reported remaining activity at 0.625 µM.
- MEASUREMENT TARGET: HMGCR (TM1-8)-GFP (Cricetulus griseus)
- ASSAY PROTOCOL: HMGCR (TM1-8)-GFP fluorescent assay (high-content imaging) in CHG cells
- ASSAY CONTEXT: read-out: Mean (HMGCR (TM1-8)-GFP signal relative to 0 μM = 100)

MOLECULE	MEASUREMENT TARGET	remaining activity at 0.625 µM / %
C=CCC(O)(CC=C)CC[C@@H](C)C1CCC2C3C(CC[C@@]21C)[C@@]1(C)CC[C@H](O)C(C)(C)C1=C[C@@H]3O (stereo partly shown) [Compound 58]	HMGCR (TM1-8)-GFP (Cricetulus griseus)	104
CCC(O)CCCCC[C@@H](C)C1CCC2C3C(CC[C@@]21C)[C@@]1(C)CC[C@H](O)C(C)(C)C1=C[C@@H]3O (stereo partly shown) [Compound 125]	HMGCR (TM1-8)-GFP (Cricetulus griseus)	65.3
CCC(O)(CC)CCC[C@@H](C)C1CCC2C3C(CC[C@@]21C)[C@@]1(C)CC[C@H](O)C(C)(C)C1=C[C@@H]3O (stereo partly shown) [Compound 80]	HMGCR (TM1-8)-GFP (Cricetulus griseus)	58.1
C=CCC(O)(CC=C)CCCC[C@@H](C)C1CCC2C3C(CC[C@@]21C)[C@@]1(C)CC[C@H](O)C(C)(C)C1=C[C@@H]3O (stereo partly shown) [Compound 102]	HMGCR (TM1-8)-GFP (Cricetulus griseus)	86.9
COC(=O)CCC[C@@H](C)C1CCC2C3C(CC[C@@]21C)[C@@]1(C)CC[C@H](O)C(C)(C)C1=C[C@@H]3O (stereo partly shown) [Compound 72]	HMGCR (TM1-8)-GFP (Cricetulus griseus)	96.6
COCCCC[C@@H](C)C1CCC2C3C(CC[C@@]21C)[C@@]1(C)CC[C@H](O)C(C)(C)C1=C[C@@H]3O (stereo partly shown) [Compound 78]	HMGCR (TM1-8)-GFP (Cricetulus griseus)	81.1
C=CCC(O)CCCC[C@@H](C)C1CCC2C3C(CC[C@@]21C)[C@@]1(C)CC[C@H](O)C(C)(C)C1=C[C@@H]3O (stereo partly shown) [Compound 109]	HMGCR (TM1-8)-GFP (Cricetulus griseus)	54.8

====

- MEASUREMENT TARGET: HMGCR (TM1-8)-GFP (Cricetulus griseus)
- Sequence (P00347 1-346): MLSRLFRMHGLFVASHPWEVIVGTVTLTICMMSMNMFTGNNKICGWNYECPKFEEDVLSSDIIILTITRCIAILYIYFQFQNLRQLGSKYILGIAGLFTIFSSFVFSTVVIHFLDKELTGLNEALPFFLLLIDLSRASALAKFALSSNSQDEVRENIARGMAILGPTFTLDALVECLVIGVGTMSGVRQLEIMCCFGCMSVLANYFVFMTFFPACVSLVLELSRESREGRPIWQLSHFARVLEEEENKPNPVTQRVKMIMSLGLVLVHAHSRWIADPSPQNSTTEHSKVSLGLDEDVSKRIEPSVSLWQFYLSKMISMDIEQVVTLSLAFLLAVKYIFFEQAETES
- ASSAY PROTOCOL: HMGCR (TM1-8)-GFP fluorescent assay (high-content imaging) in CHG cells
- ASSAY CONTEXT: read-out: Mean (HMGCR (TM1-8)-GFP signal relative to 0 μM = 100)
QUANTITY KIND: remaining activity at 0.156 µM (%)

COMPOUND	MEASURED VALUE
CCC(O)CCCC[C@@H](C)C1CCC2C3C(CC[C@@]21C)[C@@]1(C)CC[C@H](O)C(C)(C)C1=C[C@@H]3O (stereo partly shown)	90.7
CC(O)CCCC[C@@H](C)C1CCC2C3C(CC[C@@]21C)[C@@]1(C)CC[C@H](O)C(C)(C)C1=C[C@@H]3O (stereo partly shown)	90.7
C=CCC(O)CCCC[C@@H](C)C1CCC2C3C(CC[C@@]21C)[C@@]1(C)CC[C@H](O)C(C)(C)C1=C[C@@H]3O (stereo partly shown)	91
C[C@H](CCCCCCO)C1CCC2C3C(CC[C@@]21C)[C@@]1(C)CC[C@H](O)C(C)(C)C1=C[C@@H]3O (stereo partly shown)	94.7
C[C@H](CCCO)C1CCC2C3C(CC[C@@]21C)[C@@]1(C)CC[C@H](O)C(C)(C)C1=C[C@@H]3O (stereo partly shown)	98.3
CCC(O)(CC)CC[C@@H](C)C1CCC2C3C(CC[C@@]21C)[C@@]1(C)CC[C@H](O)C(C)(C)C1=C[C@@H]3O (stereo partly shown)	96.7
C=CCC(O)(CC=C)CCCCC[C@@H](C)C1CCC2C3C(CC[C@@]21C)[C@@]1(C)CC[C@H](O)C(C)(C)C1=C[C@@H]3O (stereo partly shown)	92.9

====

- MEASUREMENT TARGET: HMGCR (TM1-8)-GFP (Cricetulus griseus, UniProt P00347)
- ASSAY PROTOCOL: HMGCR (TM1-8)-GFP fluorescent assay (high-content imaging) in CHG cells
- ASSAY CONTEXT: 16 h, read-out: HMGCR (TM1-8)-GFP fluorescent intensity, mean
QUANTITY KIND: remaining activity at 10 µM

MOLECULE	MEASUREMENT TARGET	MEASURED VALUE
CC(C)CCC[C@@H](C)[C@H]1CC[C@H]2[C@@H]3[C@@H](O)C=C4C(C)(C)[C@@H](O)CC[C@]4(C)[C@H]3CC[C@]12C [Compound 35, 4,4-Dimethyl 7β-hydroxyl cholesterol]	HMGCR (TM1-8)-GFP (Cricetulus griseus, UniProt P00347)	37%
CC(C)CCC[C@@H](C)[C@H]1CCC2C3C(CC[C@@]21C)[C@@]1(C)CC[C@H](O)C(C)(C)C1=C[C@H]3O (stereo partly drawn)	HMGCR (TM1-8)-GFP (Cricetulus griseus, UniProt P00347)	58.6%
CC(C)CCC[C@@H](C)[C@H]1CC[C@H]2[C@@H]3CC=C4C(C)(C)[C@@H](O)CC[C@]4(C)[C@H]3CC[C@]12C	HMGCR (TM1-8)-GFP (Cricetulus griseus, UniProt P00347)	56.7%
CCC1(CC)C2=CCC3C(CC[C@@]4(C)C3CC[C@@H]4[C@H](C)CCCC(C)C)[C@@]2(C)CC[C@@H]1O (stereo partly drawn)	HMGCR (TM1-8)-GFP (Cricetulus griseus, UniProt P00347)	89.3%
CC(C)CCC[C@@H](C)[C@H]1CC[C@H]2[C@@H]3CC=C4C[C@@H](O)CC[C@]4(C)[C@H]3CC[C@]12C	HMGCR (TM1-8)-GFP (Cricetulus griseus, UniProt P00347)	65.5%
CC(C)CCC[C@@H](C)[C@H]1CCC2C3C(CC[C@@]21C)[C@@]1(C)CC[C@H](O)C(C)(C)C1=C[C@H]3N=[N+]=[N-] (stereo partly drawn)	HMGCR (TM1-8)-GFP (Cricetulus griseus, UniProt P00347)	96.7%

====

- MEASUREMENT TARGET: HMGCR (TM1-8)-GFP (Cricetulus griseus, UniProt P00347)
- ASSAY PROTOCOL: HMGCR (TM1-8)-GFP fluorescent assay (high-content imaging) in CHG cells
- ASSAY CONTEXT: 16 h, read-out: HMGCR (TM1-8)-GFP fluorescent intensity, mean
QUANTITY KIND: remaining activity at 0.01 µM (%)

COMPOUND	MEASURED VALUE
CC(C)CCC[C@@H](C)[C@H]1CC[C@H]2[C@@H]3[C@@H](O)C=C4C(C)(C)[C@@H](O)CC[C@]4(C)[C@H]3CC[C@]12C [Compound 35, 4,4-Dimethyl 7β-hydroxyl cholesterol]	100
CC(C)CCC[C@@H](C)[C@H]1CC[C@H]2[C@@H]3CC=C4C(C)(C)[C@@H](O)CC[C@]4(C)[C@H]3CC[C@]12C [Compound 7, 4,4-Dimethyl cholesterol]	101
CC(C)CCC[C@@H](C)[C@H]1CC[C@H]2[C@@H]3CC=C4C[C@@H](O)CC[C@]4(C)[C@H]3CC[C@]12C [Cholesterol]	100
CC(C)CCC[C@@H](C)[C@H]1CCC2C3C(CC[C@@]21C)[C@@]1(C)CC[C@H](O)C(C)(C)C1=C[C@H]3O (stereo partly shown) [Compound 36]	106

====

- MEASUREMENT TARGET: HMGCR (TM1-8)-GFP (Cricetulus griseus)
- ASSAY PROTOCOL: HMGCR (TM1-8)-GFP fluorescent assay (high-content imaging) in CHG cells
- ASSAY CONTEXT: read-out: Mean (HMGCR (TM1-8)-GFP signal relative to 0 μM = 100)

MOLECULE	MEASUREMENT TARGET	remaining activity at 1.25 µM
C=CCC(O)CCCC[C@@H](C)C1CCC2C3C(CC[C@@]21C)[C@@]1(C)CC[C@H](O)C(C)(C)C1=C[C@@H]3O (stereo partly shown)	HMGCR (TM1-8)-GFP (Cricetulus griseus)	36.4%
C[C@H](CCCCC(=O)O)C1CCC2C3C(CC[C@@]21C)[C@@]1(C)CC[C@H](O)C(C)(C)C1=C[C@@H]3O (stereo partly shown)	HMGCR (TM1-8)-GFP (Cricetulus griseus)	96.3%
C=CCC(O)CC[C@@H](C)C1CCC2C3C(CC[C@@]21C)[C@@]1(C)CC[C@H](O)C(C)(C)C1=C[C@@H]3O (stereo partly shown)	HMGCR (TM1-8)-GFP (Cricetulus griseus)	78.4%
COCCCC[C@@H](C)C1CCC2C3C(CC[C@@]21C)[C@@]1(C)CC[C@H](O)C(C)(C)C1=C[C@@H]3O (stereo partly shown)	HMGCR (TM1-8)-GFP (Cricetulus griseus)	60.7%
C[C@H](CCC(C)(C)O)C1CCC2C3C(CC[C@@]21C)[C@@]1(C)CC[C@H](O)C(C)(C)C1=C[C@@H]3O (stereo partly shown)	HMGCR (TM1-8)-GFP (Cricetulus griseus)	79.4%
C[C@H](CCC(=O)O)C1CCC2C3C(CC[C@@]21C)[C@@]1(C)CC[C@H](O)C(C)(C)C1=C[C@@H]3O (stereo partly shown)	HMGCR (TM1-8)-GFP (Cricetulus griseus)	105%
CCC(O)(CC)CCCC[C@@H](C)C1CCC2C3C(CC[C@@]21C)[C@@]1(C)CC[C@H](O)C(C)(C)C1=C[C@@H]3O (stereo partly shown)	HMGCR (TM1-8)-GFP (Cricetulus griseus)	35.6%
CCC(O)(CC)CCC[C@@H](C)C1CCC2C3C(CC[C@@]21C)[C@@]1(C)CC[C@H](O)C(C)(C)C1=C[C@@H]3O (stereo partly shown)	HMGCR (TM1-8)-GFP (Cricetulus griseus)	33.7%
C=CCC(O)(CC=C)CC[C@@H](C)C1CCC2C3C(CC[C@@]21C)[C@@]1(C)CC[C@H](O)C(C)(C)C1=C[C@@H]3O (stereo partly shown)	HMGCR (TM1-8)-GFP (Cricetulus griseus)	92.1%
C[C@H](CCCCCCO)C1CCC2C3C(CC[C@@]21C)[C@@]1(C)CC[C@H](O)C(C)(C)C1=C[C@@H]3O (stereo partly shown)	HMGCR (TM1-8)-GFP (Cricetulus griseus)	57.4%
CCC(O)CC[C@@H](C)C1CCC2C3C(CC[C@@]21C)[C@@]1(C)CC[C@H](O)C(C)(C)C1=C[C@@H]3O (stereo partly shown)	HMGCR (TM1-8)-GFP (Cricetulus griseus)	68.2%
COC(=O)CCC[C@@H](C)C1CCC2C3C(CC[C@@]21C)[C@@]1(C)CC[C@H](O)C(C)(C)C1=C[C@@H]3O (stereo partly shown)	HMGCR (TM1-8)-GFP (Cricetulus griseus)	89.7%
C[C@H](CCCCCC(C)(C)O)C1CCC2C3C(CC[C@@]21C)[C@@]1(C)CC[C@H](O)C(C)(C)C1=C[C@@H]3O (stereo partly shown)	HMGCR (TM1-8)-GFP (Cricetulus griseus)	29.5%
